Values were extracted from the DeepSol protein solubility set.

Experiment: soluble on expression in E. coli; label from the status in PepcDB or PDB records

SEQUENCE: MSDPKQKSDDLPEQVEQPEQGGGNDGQEEDVQMAEVSEQELERVRTLLHRDWMYSFTPERVRRYHLNRSDYLNEEIRHSQRAIRNALLGYKHASNSRKTCRTDLLDTTWILENLELVGRQLPRESSSQGNPNQESVQELHRQICQLFEDDALAVCERGHNQEVALDLASQVIATHMRTIREFQEEYFKVTGKKHELKKLEDNAYGVLLTPSPKRMPKNFQRRRSDGDDDDDGPGNWGNLNPVAPV
soluble on expression in E. coli: soluble

SEQUENCE: PSPSTEQSAKKVRKKAENAHNTPLLVLYGSNMGTAEGTARDLADIAMSKGFAPQVATLDSHAGNLPREGAVLIVTASYNGHPPDNAKQFVDWLDQASADEVKGVRYSVFGCGDKNWATTYQKVPAFIDETLAAKGAENIADRGEADASDDFEGTYEEWREHMWSDVAAYFNLDIENSEDNKSTLSLQFVDS
soluble on expression in E. coli: soluble

====

Test: soluble on expression in E. coli; label from the status in PepcDB or PDB records

SEQUENCE: MSLSDQPVLFSRAAASCRLTLNREDKCHAINEEMIESLDHYLNEIENDTALRLVELTATGDKFFCAGGDIKSWSAYSPLDMGRKWIKRGNDVFNRLRNLPQLTVANLNGHTIGGGIELALCCDIRIARPHAKFSNPEVMLGMVPGWMGIERVLNQVGPVVGRQMLMLGKRLTAQEAQAANLIDEVVEKEQVESWMANQLAQLEKCGPVALAHIKQLILALENKHADYSHQLLAGLMSATQDCQQATHAFAEKAGVSFHNQEGHHHHHH
soluble on expression in E. coli: soluble
--
SEQUENCE: SLGMIKNSLFGSVETWPWQVLSKGDKEEVAYEERACEGGKFATVEVTDKPVDEALREAMPKVAKYAGGTNDKGIGMGMTVPISFAVFPNEDGSLQKKLKVWFRIPNQFQSDPPAPSDKSVKIEEREGITVYSMQFGGYAKEADYVAQATRLRAALEGTATYRGDIYFCTGYDPPMKPYGRRNEIWLLKT
soluble on expression in E. coli: soluble

====

Experiment: soluble on expression in E. coli; label from the status in PepcDB or PDB records

SEQUENCE: MSIKVDMSLDCKGLACPMPIVKTKKAIEGLASGQVIEVKATDKGSTVDIKSWANKVGHQYIGTKHEGDILMHYVRKAHEHEVNEVVKYPHTITNTELEEILVSGEECTVLDVREAAEFAFGHIPSATSMPLGELESLVLDKTKQIYVVCRTGNRSDVACQMLKEKGYTNVKNVIPGMIEWQGNIENLEHHHHHH
soluble on expression in E. coli: soluble

SEQUENCE: GSERVNYKPGMRVLTKMSGFPWWPSMVVTESKMTSVARKSKPKRAGTFYPVIFFPNKEYLWTGSDSLTPLTSEAISQFLEKPKPKTASLIKAYKMAQSTPDLDSLSVPS
soluble on expression in E. coli: soluble

SEQUENCE: MSLGSERWITVQLVGEIMGTSFERGISQYPNVNDEVHLVTESDLEAIHGVEEQGQVVVGRLASADGIPVKLDLDKMVTRHSAVLGSTGSGKSTTVASLLRSIVSGADGSDAGFPSSRILMLDIHGEYSHALSDVAKVFRISPEANQTQLHIPFWALDPNELLCFLMGRLDDKPLTAILDKVYEYKHDQAVAHPRAGLNVTSMTSDTPVPFSLKKLWLELLEPEVKTWEDTARSQPALLEAGNADNVTPPQYKPHGAGATPPFINQIGVLGIRRPLDQLRSRLLDKKYDFLLHPGDWEPDLDGNVTKDLDALLEEWLGHDKPITILDLSGVPSLVLEQLIGAILRILYEALFWGRDRSEGHHHHHH
soluble on expression in E. coli: soluble

SEQUENCE: MGSDKIHHHHHHMNTTHAVPSITPNNDPWEAYDDIKMFGKPTLTNIEVTTTTLCNMRCEHCAVGYTLQTKDPDALPLDLLLRRLDEIPHLRAFSITGGEPMLSKKSVESYVVPLLRYAHERGARTQINSNLTLNIERYEKILPYLDVLHISHNYGSINDFTDIGFAVMERKPSIEQREALFHRMVENAKMLTQEGVFVSAETMINKRTLPHLEKIHEQIVSMGCQRHEVHPMYPSDFASALDVASLDEIRKGIHRLLDARDKKTWMLFGTLPFYPCSDQEEDLMLLKRLYGEPNVTVRNDPDGRSRLNVNLFDGNIIVTDFGDTPPLGNIMTTSFIEAYEKWQHSEISKELSCHCPMAECLGPNILVKNTYYRGVDFHKRKAVLHK
soluble on expression in E. coli: not soluble

SEQUENCE: MGSDKIHHHHHHMTGRRIAIAIDSLAGGGAEKVMLTLASTLVELGHEPHLLVLQQDCHHEIPPGLQVHFCFGGDERNIDGFWRTRGSVQKLQQWITGLEERFGKFELFLSNLDKTNLLMTRTGVAPLYCVVHNSIEEELQRQRKLGPFAYLSMLRAKKSLNGQHLITVSKGIANEIAEVGRVQPASVQTIYNPFELEKIQHQASQTADALPKGDYIIHVGRFARQKRHDVLFAALKQMRNPLPLVLLCNNKKKAIKSARKFGVEDRVIIPGFQTNPYPWIKGARLLALSSDYEGLPTVLIESLAVGTPVVSTDCRHGPKEILTGALRRFLVPRRDPAALAMAMDEALTHYPDCDDAEILTQVGAAAVAGKYLKLLTA
soluble on expression in E. coli: not soluble

SEQUENCE: MKIEIKVQIKDGKNSPNLKPGGYIVSASKSFSIDYSKAVAITRNPEIYKNIGIPYIWISKVEGENAISPTNLPKLLHTMISLSKKHPGVTFIIDSVEYLALENGFESTFKFLISAKDHLMLNNSSLVLIIEDKAFKPNELALLKKEFKEISLEHHHHHH
soluble on expression in E. coli: soluble

SEQUENCE: MAITAQMVKELREKTGAGMMDCKKALTETNGDMEKAIDFLREKGIAKAAKKADRIAAEGLTFIETNGNDGLILELNSETDFVAKNEGFQTLIKELAAHLLANKPANVEEAMAQTMENGKKVEEHINEAIAKIGEKLTLRRFEIVSKTDADAFGAYLHMGGRIGVLTVLEGSTDEAAAKDVAMHIAAVNPKYIDRDAVTAEEVEHERQVLTQQALNEGKPEKIVAKMVEGRLGKFFEEICLLDQAFVKNPDMKVRQFVESKGGTLKGFVRYAVGEGIEKREDNFAEEVMNQVKGSN
soluble on expression in E. coli: not soluble

SEQUENCE: AHHHHHHGSKTFLTEQQIKVLMLRAKGYKQSEIAKILGTSRANVSILEKRAMEKIEKARNTLLLWEQINSKVIVEIKAGEDIFSIPEKFFKKADKVGVKVPYSTAEIITFLVEHAPVEDRLAKRDFVLFLDSKNKLRIGDCLVIEEIKED
soluble on expression in E. coli: soluble

SEQUENCE: MSPVEESPEEFLARFAAHRVEVRLYPEPWGSPLLEVQTPAGFVYAMDRGAPPAPVGEARVLFHGLARKVARAQGKEGVFREGAAYRLVGTARPLEKGFYLLLARGLPVVVHWEGPMPEEAEVLLWPPLMLFRE
soluble on expression in E. coli: soluble

SEQUENCE: GSMAPLGGAPRLVLLFSGKRKSGKDFVTEALQSRLGADVCAVLRLSGPLKEQYAQEHGLNFQRLLDTSTYKEAFRKDMIRWGEEKRQADPGFFCRKIVEGISQPIWLVSDTRRVSDIQWFREAYGAVTQTVRVVALEQSRQQRGWVFTPGVDDAESECGLDNFGDFDWVIENHGVEQRLEEQLENLIEFIRSRLKLHHHHHH
soluble on expression in E. coli: soluble

SEQUENCE: MLRRQMSFNGKSDMGILYLVPTPIGNLEDMTFRAIDTLKSVDAIAAEDTRQTKKLCHVYEIETPLVSYHEHNKESSGHKIIEWLKSGKNIALVSDAGLPTISDPGAEIVKDFTDIGGYVVPLPGANAALTALIASGIVPQPFFFYGFLNRQKKEKKKELEALKKRQETIIFYEAPHRLKETLSAMAEILGDREIAVTRELTKKYEEFIRGTISEVIGWANEDQIRGEFCLVVEGSNNEEVDEEEQWWETLTAKEHVEHYISKGATSKEAIKKAAVDRNVPKREVYDAYHIKQ
soluble on expression in E. coli: soluble

SEQUENCE: MAKRIKNTTPKQDGFRMPGEFEKQKQIWMLWPWRNDNWRLGAKPAQKAFLEVAEAISEFEPVSLCVPPLQYENALARVSELGSHNIRIIEMTNDDAWIRDCGPTFLVNDKGDLRAVDWEFNAWGGLVDGLYFPWDQDALVARKVCEIEGVDSYKTKDFVLEGGSIHVDGEGTVLVTEMCLLHPSRNPHLTKEDIEDKLKDYLNCVKVLWVKDGIDPYETNGHIDDVACFIRPGEVACIYTDDKEHPFYQEAKAAYDFLSQQTDAKGRPLKVHKMCVTKEPCYLQEAATIDYVEGSIPREEGEMAIASYLNFLIVNGGIILPQYGDENDQLAKQQVQEMFPDRKVVGVRTEEIAYGGGNIHCITQQQPATLEHHHHHH
soluble on expression in E. coli: soluble
